Biological target: APP-Avi-soluble human LOX-1(61-273) (human, UniProt P78380 61-273)
Assay: SET, IgG vs soluble human LOX-1
pKd: −log10 of the molar value.

- binder: "MOR021433 (antibody, human IgG1, kappa, L234A L235A, V domains shown, also called MOR21433) VH: QVQLVQSGAEVKKPGSSVKVSCKASGGTFSDYAISWVRQAPGQGLEWMGGIMPISGAPYYAQKFQGRVTITADESTSTAYMELSSLRSEDTAVYYCARDSSTSYYYYFDYWGQGTLVTVSS VL: DIQMTQSPSSLSASVGDRVTITCRASQDINSWLAWYQQKPGKAPKLLIYQASNLQSGVPSRFSGSGSGTDFTLTISSLQPEDFATYYCQQIDHTPFTFGQGTKVEIKR"
  pKd: 11.52
- binder: "MOR021468 (antibody, human IgG1, lambda, L234A L235A, V domains shown, also called MOR21468) VH: QVQLLESGGGLVQPGGSLRLSCAASGFTFSDYALHWVRQAPGKGLEWVSVISYAGGFKFYADSVKGRFTISRDNSKNTLYLQMNSLRAEDTAVYYCARSPGLTSYHDSWGQGTLVTVSS VL: DIVLTQPPSVSGAPGQRVTISCSGSSSNIGSNYVSWYQQLPGTAPKLLIHSNSHRPSGVPDRFSGSKSGTSASLAITGLQAEDEADYYCQSWDYESERVVFGGGTKLTVLG"
  pKd: 12.22
- binder: "MOR021435 (antibody, human IgG1, kappa, L234A L235A, V domains shown, also called MOR21435) VH: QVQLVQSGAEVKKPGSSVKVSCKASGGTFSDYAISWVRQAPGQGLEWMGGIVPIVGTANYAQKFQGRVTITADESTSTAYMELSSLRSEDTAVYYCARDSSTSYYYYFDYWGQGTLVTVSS VL: DIQMTQSPSSLSASVGDRVTITCRASQDINSWLAWYQQKPGKAPKLLIYQASNLQSGVPSRFSGSGSGTDFTLTISSLQPEDFATYYCQQMWQFPITFGQGTKVEIKR"
  pKd: 11.30
- binder: "MOR021460 (antibody, human IgG1, lambda, L234A L235A, V domains shown, also called MOR21460) VH: QVQLLESGGGLVQPGGSLRLSCAASGFTFSDYALHWVRQAPGKGLEWVSVISYQGGFIYYADSVKGRFTISRDNSKNTLYLQMNSLRAEDTAVYYCARSPGLTSYHDSWGQGTLVTVSS VL: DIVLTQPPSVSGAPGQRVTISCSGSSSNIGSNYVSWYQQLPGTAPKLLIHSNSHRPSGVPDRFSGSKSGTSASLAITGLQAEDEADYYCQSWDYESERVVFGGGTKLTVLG"
  pKd: 12.52
